EXPERIMENTAL SYSTEM: IL-17A/F (Homo sapiens, UniProt Q16552+Q96PD4)
ASSAY COMMENT: IL-17A/F HEK-Blue cell assay (SEAP reporter)
PROTOCOL CONDITIONS: HEK-Blue IL-17A reporter cells, IL17A/F 5 ng/mL, 20 hours, SEAP read at A630; read-out: HEK-Blue IL17AF (IC50 for IL-17A/F inhibition)
pIC50: −log10 of the molar value.

MOLECULE	pIC50
C[C@H]1CC[C@H]([C@H](NC(=O)C2(F)CC2)c2cn3nc(CC4C[C@@H](C(F)(F)F)CNC4=O)c(N4CCOCC4)nc3n2)CC1 (single isomer, unassigned) [Compound 118]	< 6.00
Cc1nonc1C(=O)N[C@H](c1cn2nc(C[C@H]3C[C@@H](C(F)(F)F)CNC3=O)c(C3CCOCC3)nc2n1)[C@H]1C[C@H](C2CC2)C1 [Compound 318]	< 6.00
CCc1nonc1C(=O)N[C@H](c1cn2nc(C[C@H]3C[C@@H](C(F)(F)F)CNC3=O)c(C3CCOCC3)nc2n1)C1CC2(C1)CC(F)(F)C2 [Compound 315]	< 6.00
CCn1nccc1C(=O)N[C@H](c1cn2nc(C[C@H]3C[C@@H](C(F)(F)F)CNC3=O)c(C(C)C)nc2n1)C1CCC(F)(F)CC1 [Compound 87]	6.00 to 7.00
CCn1nccc1C(=O)N[C@H](c1cn2nc(C[C@H]3C[C@@H](C(F)(F)F)CNC3=O)c(CN(C)CC(F)(F)F)nc2n1)C1CCC(F)(F)CC1 [Compound 335]	6.00 to 7.00
CCn1nccc1C(=O)N[C@H](c1cn2nc(C[C@H]3C[C@@H](C(F)(F)F)CNC3=O)c(C3CCOC3)nc2n1)[C@H]1CC[C@H](C)CC1 (single isomer, unassigned) [Compound 138]	> 7.00
CCn1nccc1C(=O)N[C@H](c1cn2nc(C[C@H]3C[C@@H](C(F)(F)F)CNC3=O)c(CN3CC(C)(F)C3)nc2n1)C1CCC(F)(F)CC1 [Compound 337]	< 6.00
CCn1nccc1C(=O)N[C@H](c1cn2nc(C[C@H]3C[C@@H](C(F)(F)F)CNC3=O)c(C3(C)CCCOC3)nc2n1)C1CCC(F)(F)CC1 (single isomer, unassigned) [Compound 165]	6.00 to 7.00
CCn1nccc1C(=O)N[C@H](c1cn2nc(C[C@H]3C[C@@H](C(F)(F)F)CNC3=O)c(N3C[C@@H](C)O[C@@H](C)C3)nc2n1)C1CCC(F)(F)CC1 [Compound 247]	6.00 to 7.00
O=C(N[C@H](c1cn2nc(C[C@H]3C[C@@H](C(F)(F)F)CNC3=O)c([C@H]3CCCOC3)nc2n1)[C@@H]1CCCC(F)(F)C1)c1nonc1C1CC1 [Compound 249]	6.00 to 7.00
CCn1nccc1C(=O)N[C@H](c1cn2nc(CC3C[C@@H](C(F)(F)F)CNC3=O)c(N3CC4CC(C3)O4)nc2n1)[C@H]1CC[C@H](C)CC1 (single isomer, unassigned) [Compound 103]	6.00 to 7.00
CCn1nccc1C(=O)N[C@H](c1cn2nc(C[C@H]3C[C@@H](C(F)(F)F)CNC3=O)c([C@@H]3CN(C)CCO3)nc2n1)C1CCC(F)(F)CC1 (single isomer, unassigned) [Compound 376]	< 6.00
CCn1nccc1C(=O)N[C@H](c1cn2nc(C[C@H]3C[C@@H](C(F)(F)F)NC3=O)c(C3CCOCC3)nc2n1)[C@H]1CC[C@H](C)CC1 [Compound 152]	6.00 to 7.00
Cn1nccc1C(=O)N[C@H](c1cn2nc(C[C@H]3C[C@@H](C(F)(F)F)CNC3=O)c(C3CCOCC3)nc2n1)[C@@H]1CCCC(F)(F)C1 [Compound 277]	6.00 to 7.00
CCn1nccc1C(=O)N[C@H](c1cn2nc(C[C@H]3C[C@@H](C(F)(F)F)CNC3=O)c(C3(OC)CCC(F)(F)CC3)nc2n1)C1CCC(F)(F)CC1 [Compound 270]	< 6.00
CCn1nccc1C(=O)N[C@H](c1cn2nc(CC3C[C@@H](C(F)(F)F)CNC3=O)c(N3CCOCC3)nc2n1)C1CCC(F)(F)CC1 (stereo partly drawn) [Compound 47]	< 6.00
CCn1nccc1C(=O)N[C@H](c1cn2nc(C[C@H]3C[C@@H](C(F)(F)F)CNC3=O)c(CN3CCOCC3C)nc2n1)[C@H]1CC[C@H](C)CC1 (stereo partly drawn) [Compound 408]	> 7.00
CCn1nccc1C(=O)N[C@H](c1cn2nc(C[C@H]3C[C@@H](C(F)(F)F)CNC3=O)c(OC(C)C)nc2n1)C1CCC(F)(F)CC1 [Compound 417]	< 6.00
Cn1nccc1C(=O)N[C@H](c1cn2nc(C[C@H]3C[C@@H](C(F)(F)F)CNC3=O)c(C3(C)CCOCC3)nc2n1)C1CCC(F)(F)CC1 [Compound 280]	< 6.00
CCn1nccc1C(=O)N[C@H](c1cn2nc(CC3C[C@@H](C(F)(F)F)CNC3=O)c(N3CC4CCC(C3)O4)nc2n1)[C@H]1CC[C@H](C)CC1 (single isomer, unassigned) [Compound 105]	6.00 to 7.00
CCn1nccc1C(=O)N[C@H](c1cn2nc(CC3C[C@@H](C(F)(F)F)CNC3=O)c(N3CC4CC(C3)O4)nc2n1)[C@H]1CCCC(F)(F)C1 (single isomer, unassigned) [Compound 92]	6.00 to 7.00

---

EXPERIMENTAL SYSTEM: IL-17A/F (Homo sapiens, UniProt Q16552+Q96PD4)
Sequence (Q16552 24-155): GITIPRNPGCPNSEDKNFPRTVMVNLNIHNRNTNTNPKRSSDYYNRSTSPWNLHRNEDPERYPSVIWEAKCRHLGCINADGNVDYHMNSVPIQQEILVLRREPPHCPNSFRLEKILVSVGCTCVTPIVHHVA
Sequence (Q96PD4 31-163): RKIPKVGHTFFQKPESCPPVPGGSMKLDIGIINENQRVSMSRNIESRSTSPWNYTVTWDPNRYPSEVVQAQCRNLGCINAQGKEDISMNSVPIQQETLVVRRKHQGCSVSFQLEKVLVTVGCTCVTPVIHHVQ
ASSAY COMMENT: IL-17A/F HEK-Blue cell assay (SEAP reporter)
PROTOCOL CONDITIONS: HEK-Blue IL-17A reporter cells, IL17A/F 5 ng/mL, 20 hours, SEAP read at A630; read-out: HEK-Blue IL17AF (IC50 for IL-17A/F inhibition)

MOLECULE	EXPERIMENTAL SYSTEM	IC50
CCn1nccc1C(=O)N[C@H](c1cn2nc(CC3C[C@H](C(F)(F)F)CNC3=O)c(N(C)C)nc2n1)C1CCC(F)(F)CC1 (single isomer, unassigned) [Compound 55]	IL-17A/F (Homo sapiens, UniProt Q16552+Q96PD4)	0.1 to 1 µM
CCn1nccc1C(=O)N[C@H](c1cn2nc(C[C@H]3C[C@@H](C(F)(F)F)CNC3=O)c(CN3CCOC(C)(C)C3)nc2n1)C1CCC(F)(F)CC1	IL-17A/F (Homo sapiens, UniProt Q16552+Q96PD4)	> 1 µM
C[C@H]1CN(c2nc3nc([C@@H](NC(=O)c4ccnn4C)[C@@H]4CCCC(F)(F)C4)cn3nc2C[C@H]2C[C@H](C(F)(F)F)CNC2=O)CCO1	IL-17A/F (Homo sapiens, UniProt Q16552+Q96PD4)	0.1 to 1 µM
CCn1nccc1C(=O)N[C@H](c1cn2nc(CC3C[C@@H](C(F)(F)F)CNC3=O)c(N3CCOCC3)nc2n1)[C@@H]1CCCC(F)(F)C1 (single isomer, unassigned) [Compound 95]	IL-17A/F (Homo sapiens, UniProt Q16552+Q96PD4)	0.1 to 1 µM
CCn1nccc1C(=O)N[C@H](c1cn2nc(C[C@H]3C[C@@H](C(F)(F)F)CNC3=O)c(CN(C)C3CC3)nc2n1)C1CCC(F)(F)CC1	IL-17A/F (Homo sapiens, UniProt Q16552+Q96PD4)	0.1 to 1 µM
Cc1nonc1C(=O)N[C@H](c1cn2nc(C[C@H]3C[C@@H](C(F)(F)F)CNC3=O)c([C@@H]3CCCOC3)nc2n1)C1CCC(F)(F)CC1 (single isomer, unassigned)	IL-17A/F (Homo sapiens, UniProt Q16552+Q96PD4)	> 1 µM
O=C(N[C@H](c1cn2nc(CC3C[C@@H](C(F)(F)F)CNC3=O)cnc2n1)C1CCC(F)(F)CC1)c1conc1C(F)(F)F (some centres unmarked)	IL-17A/F (Homo sapiens, UniProt Q16552+Q96PD4)	> 1 µM
CCn1nccc1C(=O)N[C@H](c1cn2nc(C[C@H]3C[C@@H](C(F)(F)F)CNC3=O)c(C3CCn4nccc4C3)nc2n1)C1CCC(F)(F)CC1 (some centres unmarked)	IL-17A/F (Homo sapiens, UniProt Q16552+Q96PD4)	0.1 to 1 µM
CCn1nccc1C(=O)N[C@H](c1cn2nc(C[C@H]3C[C@@H](C(F)(F)F)CNC3=O)c(C(C)C)nc2n1)[C@H]1CCCC(F)(F)C1	IL-17A/F (Homo sapiens, UniProt Q16552+Q96PD4)	< 0.1 µM
CCn1nccc1C(=O)N[C@H](c1cn2nc(C[C@H]3C[C@@H](C(F)(F)F)CNC3=O)c(N(C)C)nc2n1)[C@@H]1CCCC(F)(F)C1	IL-17A/F (Homo sapiens, UniProt Q16552+Q96PD4)	0.1 to 1 µM
CCn1nccc1C(=O)N[C@H](c1cn2nc(C[C@H]3C[C@@H](C(F)(F)F)CNC3=O)c(CC3CCOCC3)nc2n1)[C@H]1CC[C@H](C)CC1	IL-17A/F (Homo sapiens, UniProt Q16552+Q96PD4)	< 0.1 µM

Reference source: patent US20260226068A1
